- tested.target: T1, anti-CD28 scFv (VH-linker 1-VL) (biotinylated (site not stated))
- T1 construct: Captured as biotinylated scFv on neutravidin coated plates in the phage ELISA
- T1 sequence (scFv, as listed by the source): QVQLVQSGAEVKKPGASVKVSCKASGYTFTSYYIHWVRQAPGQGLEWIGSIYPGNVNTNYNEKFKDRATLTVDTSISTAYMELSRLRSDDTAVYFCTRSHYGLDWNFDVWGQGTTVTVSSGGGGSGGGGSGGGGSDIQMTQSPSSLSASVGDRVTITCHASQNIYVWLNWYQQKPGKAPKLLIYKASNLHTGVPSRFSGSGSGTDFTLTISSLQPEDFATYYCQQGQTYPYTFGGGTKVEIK
- assay.remarks: phage ELISA; biotinylated scFv on neutravidin plate; anti-M13-HRP;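 also: crude clonal phage supernatant added to wells pre-incubated with soluble CD28 protein or only blocking buffer, then washed, bound phage read out with an HRP-linked anti-M13 antibody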
Below, each of the binders is paired with its reported CD28 scFv signal value.
The response must contain the number and no unit.

// solved cases for CD28 scFv signal follow
1. MDWCPSDMWAHCYN (on phage (pIII fusion)) [Phage-249 clonal phage peptide] ... 1.21
2. MSWCPRDLWHLCFF (on phage (pIII fusion)) [Phage-319 clonal phage peptide] ... 2.27
3. MDWCPIYLWAECFN (on phage (pIII fusion)) [Phage-299 clonal phage peptide] ... 2.45
4. MDWCPRYLWHVCFD (on phage (pIII fusion)) [Phage-302 clonal phage peptide] ... 2.44
5. MDWCPMFLWHECFN (on phage (pIII fusion)) [Phage-309 clonal phage peptide] ... 2.38

CD28 scFv signal reading for MDWCPRYLWHVCFN (on phage (pIII fusion)) [Phage-239 clonal phage peptide] : 2.6

CD28 scFv signal reading for MDWCPRYLWHVCFY (on phage (pIII fusion)) [Phage-291 clonal phage peptide] : 2.5
